Parameter Luminescence signal for ATP measurement, day-1 Average: see the listing below.
# System: WI-38 cells
# RUN_DESCRIPTION: Long-term effects on cell viability (5 days, ATP; morphology, PI imaging)
# Type: cell-based
# PROTOCOL_CONDITIONS: Batch 1; 10 μM; day-1; n = 6; day-0 luminescence = 320956 ± 24708
Reply: number alone, nothing else.

{"columns": ["COMPOUND", "QUANTITATIVE_RESULT"],
 "data": [
  ["CCCC(=O)Nc1ccc(-c2cn3cccc(C)c3n2)cc1 [O12]", 527095]
]}

## Task Look up Luminescence signal for ATP measurement, day-1 Average for this compound: O=C(Nc1nc(C23CC4CC(CC(C4)C2)C3)cs1)C(c1ccccc1)c1ccccc1 [O10]
## Result 560153

## Task Entry to check: CC(C)(C)c1ccc(OCC(=O)Nc2ccc3c4c(cccc24)C(=O)NC3=O)cc1 [O22]
## Result 435891

* * *

Reported fold induction at 10 µM values for a set of compounds
# System: FOXO3
# RUN_DESCRIPTION: qPCR analysis of FOXO3-regulated genes
# Type: cell-based, human
# PROTOCOL_CONDITIONS: Homo sapiens; WI-38 cells, 10 μM, 24 hrs, n=4, qPCR normalized by B2M; read-out: DDB1 Normalized fold change

## Task Can you share its fold induction at 10 µM? I mean this compound: CCCC(=O)Nc1ccc(-c2cn3cccc(C)c3n2)cc1 [O12]
## Result 1.02

## Task Then this compound: O=C(Nc1ccc(Cl)c(Cl)c1)c1ccc([N+](=O)[O-])o1 [Gr-1G]
## Result 1.14

## Task Also need CC1C(=O)C(C)C(c2cc(Cl)ccc2O)NC1c1cc(Cl)ccc1O (stereo not shown) [O6] , thanks.
## Result 0.988

## Task Could you do the same for Nc1ccccc1S(=O)(=O)Nc1cccc2cccnc12 [Gr-3C] , please?
## Result 0.985

## Task Follow-up entry: Cc1cc(C)c(C(=O)/C=C/c2ccccc2F)c(O)n1 [O18]
## Result 1.33

## Task Now try O=[N+]([O-])c1ccccc1S(=O)(=O)Nc1cccc2cccnc12 [Gr-3A] .
## Result 0.969

## Task # repeat for Cc1ccc(NC(=O)c2ccc([N+](=O)[O-])o2)cc1C [Gr-1F]
## Result 1.37

## Task Follow-up entry: O=C(Nc1cccc(Cl)c1)c1ccc([N+](=O)[O-])o1 [Gr-1D]
## Result 1.18

## Task What do you have for Cc1ccc(S(=O)(=O)Nc2cccc3cccnc23)cc1 [Gr-3B] ?
## Result 1.12

## Task Do the same for O=C(NCc1cccnc1)/C(=C\c1ccc(Br)cc1)S(=O)(=O)c1ccccc1 [Gr-7B] please
## Result 1.31

* * *

Here the recorded fold induction at 10 µM is given for each entry.
# Test system: NRF2
# RUN_DESCRIPTION: qPCR analysis of NRF2-regulated genes
# Format: cell-based, human
# PROTOCOL_CONDITIONS: Homo sapiens; 10 μM, 24 hrs, WI-38 cells, qPCR, normalized to B2M, n = 4; read-out: GCLC expression, normalized fold change (NRF2-regulated gene)
Give the figure only, with no unit attached.

Below, each entry is followed by its recorded fold induction at 10 µM result.
{"columns": ["SMILES_STRING", "fold induction at 10 µM"],
 "data": [
  ["O=C(Nc1ccc(Cl)c(Cl)c1)c1ccc([N+](=O)[O-])o1", 1.57],
  ["COc1ccc(C(=O)/C=C/c2cccc(Cl)c2)c(OC)c1", 2.51],
  ["NS(=O)(=O)c1ccc(NC(=O)c2ccc([N+](=O)[O-])o2)cc1", 1.61],
  ["N=C1S/C(=C\\c2cn(-c3ccccc3)nc2-c2cccs2)C(=O)N1c1nccs1", 0.33]
]}

## Task Value lookup for fold induction at 10 µM; key = `COc1ccc(/C=C2\SC(=N)N(c3nccs3)C2=O)cc1`
## Result 0.51

## Task // repeat for `CC(C)(C)c1ccc(OCC(=O)Nc2ccc3c4c(cccc24)C(=O)NC3=O)cc1` and report
## Result 0.66

## Task Also `O=C(c1ccc([N+](=O)[O-])o1)N1CCc2ccccc21` ?
## Result 1.99

## Task Next record, please: `COC(=O)CCc1sc2c(c1[N+](=O)[O-])NC(=O)CCC2`
## Result 1.76

## Task Repeat for the following compound: `CCCC(=O)Nc1ccc(-c2cn3cccc(C)c3n2)cc1`
## Result 0.53

## Task Can you handle `[O-][n+]1onc2c3nsnc3c(Br)cc21` next?
## Result 1.36

* * *

# System: C. elegans
# RUN_DESCRIPTION: C. elegans lifespan assays (liquid and plate)
# Format: in vivo, Caenorhabditis elegans
# PROTOCOL_CONDITIONS: summary score
Reported M = Lifespan-extending scores in worms values for the following compounds.

Sample answers from the record:
{"columns": ["COMPOUND", "STUDY_SYSTEM", "M = Lifespan-extending scores in worms"],
 "data": [
  ["NS(=O)(=O)c1ccc(NC(=O)c2ccc([N+](=O)[O-])o2)cc1 [Gr-1A]", "C. elegans", 0],
  ["O=C(NCc1cccnc1)/C(=C\\c1ccc(Br)cc1)S(=O)(=O)c1ccccc1 [Gr-7B]", "C. elegans", 0],
  ["CCCC(=O)Nc1ccc(-c2cn3cccc(C)c3n2)cc1 [O12]", "C. elegans", "2 (2 for observed in more than 2 trials)"]
]}

## Task Need M = Lifespan-extending scores in worms, item O=C(/C=C/c1cn(-c2ccccc2)nc1-c1cccnc1)c1ccccc1 [Gr-6B]
## Result 0

## Task Also, O=C(Nc1nc(C23CC4CC(CC(C4)C2)C3)cs1)C(c1ccccc1)c1ccccc1 [O10] please.
## Result 0

## Task CCc1ccc(Oc2nc3ccccn3c(=O)c2/C=C(\C#N)C(=O)NC2CCCCC2)cc1 [Gr-5A] ?
## Result 0

* * *

# STUDY_SYSTEM: human PARP1 (Homo sapiens)
# Construct: purchased Trevigen
# Sequence (P09874 whole entry): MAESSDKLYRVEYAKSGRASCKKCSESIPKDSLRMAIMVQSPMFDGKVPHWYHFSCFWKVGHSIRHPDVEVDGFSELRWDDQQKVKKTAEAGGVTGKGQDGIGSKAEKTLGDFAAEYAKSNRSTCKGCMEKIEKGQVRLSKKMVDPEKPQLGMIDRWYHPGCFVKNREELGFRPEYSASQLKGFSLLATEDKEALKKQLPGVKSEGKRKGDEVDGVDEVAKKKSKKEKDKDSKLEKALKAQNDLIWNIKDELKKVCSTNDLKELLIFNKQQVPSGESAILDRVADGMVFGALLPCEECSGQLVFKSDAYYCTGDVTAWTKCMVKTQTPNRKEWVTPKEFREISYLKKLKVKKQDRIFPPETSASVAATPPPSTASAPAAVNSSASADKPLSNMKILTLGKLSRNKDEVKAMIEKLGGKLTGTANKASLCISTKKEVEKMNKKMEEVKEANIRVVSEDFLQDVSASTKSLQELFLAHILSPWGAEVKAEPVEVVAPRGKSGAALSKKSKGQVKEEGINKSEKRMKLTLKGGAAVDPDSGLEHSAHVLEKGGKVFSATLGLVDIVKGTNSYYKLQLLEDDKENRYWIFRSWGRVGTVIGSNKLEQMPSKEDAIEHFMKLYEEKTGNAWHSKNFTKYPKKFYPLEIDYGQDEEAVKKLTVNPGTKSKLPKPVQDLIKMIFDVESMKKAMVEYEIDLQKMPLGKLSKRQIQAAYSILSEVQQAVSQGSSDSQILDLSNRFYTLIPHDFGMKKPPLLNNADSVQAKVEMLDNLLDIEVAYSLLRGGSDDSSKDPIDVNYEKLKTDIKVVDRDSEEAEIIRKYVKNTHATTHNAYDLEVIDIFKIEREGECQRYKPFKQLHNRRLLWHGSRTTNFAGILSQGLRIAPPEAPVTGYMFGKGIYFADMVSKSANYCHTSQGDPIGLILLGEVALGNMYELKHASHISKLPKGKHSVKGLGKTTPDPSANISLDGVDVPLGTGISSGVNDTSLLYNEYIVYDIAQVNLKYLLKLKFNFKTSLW
# RUN_DESCRIPTION: PARP inhibitor assay (HT Fluorescent Homogeneous PARP Inhibition Assay Kit)
# Assay type: biochemical
# PROTOCOL_CONDITIONS: score
RESULT_TYPE: L = PARP inhibition
// response body must contain only the number

{"columns": ["COMPOUND", "L = PARP inhibition"],
 "data": [
  ["NS(=O)(=O)c1ccc(NC(=O)c2ccc([N+](=O)[O-])o2)cc1 [Gr-1A]", 0]
]}

In the following, a different compound is considered.
## Task Could you share what L = PARP inhibition was measured for COc1ccc(/C=C2\SC(=N)N(c3nccs3)C2=O)cc1 [O21] , tested on human PARP1 (Homo sapiens)?
## Result 0

* * *

# Test system: C. elegans
# Assay type: in vivo, Caenorhabditis elegans
# PROTOCOL_CONDITIONS: in vivo
RESULT_TYPE: H2O2-resistance assay, 1st experiment

Reference set (7 entries):
{"columns": ["COMPOUND", "H2O2-resistance assay, 1st experiment"],
 "data": [
  ["CCCC(=O)Nc1ccc(-c2cn3cccc(C)c3n2)cc1", "YES;"],
  ["[O-][n+]1onc2c3nsnc3c(Br)cc21", "YES;"],
  ["O=C(NCc1cccnc1)/C(=C\\c1cccc(Oc2ccccc2)c1)S(=O)(=O)c1ccccc1", "YES;"],
  ["Cc1ccc(S(=O)(=O)Nc2cccc3cccnc23)cc1", "YES;"],
  ["O=C(c1ccc([N+](=O)[O-])o1)N1CCc2ccccc21", "YES;"],
  ["CCc1ccc(Oc2nc3ccccn3c(=O)c2/C=C(\\C#N)C(=O)NC2CCCCC2)cc1", "YES;"],
  ["CC1C(=O)C(C)C(c2cc(Cl)ccc2O)NC1c1cc(Cl)ccc1O (centres unmarked)", "YES;"]
]}

Next up:
## Task Lab request: please report H2O2-resistance assay, 1st experiment under test system C. elegans for `Cc1cc(N)n(-c2ccccc2C(=O)O)n1`
## Result YES;

* * *

Quick reference: fold induction at 10 µM of the listed items.
# System: FOXO3
# RUN_DESCRIPTION: qPCR analysis of FOXO3-regulated genes
# Type: cell-based, human
# PROTOCOL_CONDITIONS: Homo sapiens; fold change; qPCR; WI-38 cells; 10 μM, 24 hrs; read-out: Summary of effects on FOXO3-regulated genes: CAT
# Method: For qPCR analysis, WI-38 cells were treated with small molecules (at 10 μM) (biological quadruplicates) for 24 hrs and processed for RNA isolation and reverse transcription (RT) with the Cells-to-Ct Kit (Life Technologies), following manufacturer's instructions. RT products were diluted with H2O and used for qPCR analysis on an ABI 7300 system (Life Technologies) (technical triplicates). Relative expression levels of target genes were normalized to the genes B2M, PPIA and GAPDH. […]
# respond with the number and nothing more

Please review the following examples before continuing.
{"columns": ["SMILES_STRING", "fold induction at 10 µM"],
 "data": [
  ["O=C(Nc1ccc(Cl)c(Cl)c1)c1ccc([N+](=O)[O-])o1", 1.35],
  ["O=C(NCc1cccnc1)/C(=C/c1ccc(-c2ccc(Cl)cc2)o1)S(=O)(=O)c1ccccc1", 1.43],
  ["COc1ccc(C(=O)/C=C/c2cccc(Cl)c2)c(OC)c1", 1.19]
]}

## Task # get_value(readout='fold induction at 10 µM', item= `Cc1ccc(NC(=O)c2ccc([N+](=O)[O-])o2)cc1C` )
## Result 1.35
